measurement_target: T1, TNFR1 (Homo sapiens, UniProt P19438)
T1 chain: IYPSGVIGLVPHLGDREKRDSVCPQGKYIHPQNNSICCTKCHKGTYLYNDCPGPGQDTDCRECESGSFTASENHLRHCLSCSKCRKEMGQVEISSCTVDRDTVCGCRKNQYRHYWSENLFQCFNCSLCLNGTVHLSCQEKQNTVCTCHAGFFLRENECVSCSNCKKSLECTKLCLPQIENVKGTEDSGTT
assay_summary: yeast display SC50

binder	unit_string	apparent Kd (screen)
E22A (designed binder) SMEEEVEKAAKEYEKKKKEAIAKHLEKLKAKDKEAAERFLKELEEAAKEYAKDEAKTMSEEEAKRRAKKYKEKVLLSELSEEEQKEIKEAEEKLVRTILKYVEEAAK	pM	539
K100H (designed binder) SMEEEVEKAAKEYEKKKKEAIEKHLEKLKAKDKEAAERFLKELEEAAKEYAKDEAKTMSEEEAKRRAKKYKEKVLLSELSEEEQKEIKEAEEKLVRTILHYVEEAAK	pM	1160
E19P (designed binder) SMEEEVEKAAKEYEKKKKPAIEKHLEKLKAKDKEAAERFLKELEEAAKEYAKDEAKTMSEEEAKRRAKKYKEKVLLSELSEEEQKEIKEAEEKLVRTILKYVEEAAK	pM	22200
K16F (designed binder) SMEEEVEKAAKEYEKFKKEAIEKHLEKLKAKDKEAAERFLKELEEAAKEYAKDEAKTMSEEEAKRRAKKYKEKVLLSELSEEEQKEIKEAEEKLVRTILKYVEEAAK	pM	446
K88M (designed binder) SMEEEVEKAAKEYEKKKKEAIEKHLEKLKAKDKEAAERFLKELEEAAKEYAKDEAKTMSEEEAKRRAKKYKEKVLLSELSEEEQKEIMEAEEKLVRTILKYVEEAAK	pM	446
A105T (designed binder) SMEEEVEKAAKEYEKKKKEAIEKHLEKLKAKDKEAAERFLKELEEAAKEYAKDEAKTMSEEEAKRRAKKYKEKVLLSELSEEEQKEIKEAEEKLVRTILKYVEETAK	pM	869
Y101P (designed binder) SMEEEVEKAAKEYEKKKKEAIEKHLEKLKAKDKEAAERFLKELEEAAKEYAKDEAKTMSEEEAKRRAKKYKEKVLLSELSEEEQKEIKEAEEKLVRTILKPVEEAAK	pM	405
A46Y (designed binder) SMEEEVEKAAKEYEKKKKEAIEKHLEKLKAKDKEAAERFLKELEEYAKEYAKDEAKTMSEEEAKRRAKKYKEKVLLSELSEEEQKEIKEAEEKLVRTILKYVEEAAK	pM	490
K88Q (designed binder) SMEEEVEKAAKEYEKKKKEAIEKHLEKLKAKDKEAAERFLKELEEAAKEYAKDEAKTMSEEEAKRRAKKYKEKVLLSELSEEEQKEIQEAEEKLVRTILKYVEEAAK	pM	490
D32K (designed binder) SMEEEVEKAAKEYEKKKKEAIEKHLEKLKAKKKEAAERFLKELEEAAKEYAKDEAKTMSEEEAKRRAKKYKEKVLLSELSEEEQKEIKEAEEKLVRTILKYVEEAAK	pM	1050
E54I (designed binder) SMEEEVEKAAKEYEKKKKEAIEKHLEKLKAKDKEAAERFLKELEEAAKEYAKDIAKTMSEEEAKRRAKKYKEKVLLSELSEEEQKEIKEAEEKLVRTILKYVEEAAK	pM	13800
I21A (designed binder) SMEEEVEKAAKEYEKKKKEAAEKHLEKLKAKDKEAAERFLKELEEAAKEYAKDEAKTMSEEEAKRRAKKYKEKVLLSELSEEEQKEIKEAEEKLVRTILKYVEEAAK	pM	653
L43I (designed binder) SMEEEVEKAAKEYEKKKKEAIEKHLEKLKAKDKEAAERFLKEIEEAAKEYAKDEAKTMSEEEAKRRAKKYKEKVLLSELSEEEQKEIKEAEEKLVRTILKYVEEAAK	pM	1400
A10K (designed binder) SMEEEVEKAKKEYEKKKKEAIEKHLEKLKAKDKEAAERFLKELEEAAKEYAKDEAKTMSEEEAKRRAKKYKEKVLLSELSEEEQKEIKEAEEKLVRTILKYVEEAAK	pM	490
A35G (designed binder) SMEEEVEKAAKEYEKKKKEAIEKHLEKLKAKDKEGAERFLKELEEAAKEYAKDEAKTMSEEEAKRRAKKYKEKVLLSELSEEEQKEIKEAEEKLVRTILKYVEEAAK	pM	1160
K33M (designed binder) SMEEEVEKAAKEYEKKKKEAIEKHLEKLKAKDMEAAERFLKELEEAAKEYAKDEAKTMSEEEAKRRAKKYKEKVLLSELSEEEQKEIKEAEEKLVRTILKYVEEAAK	pM	593
